Data origin, for the record: patent US5329002A

Tested on: E. cloacae P99
Assay: In vitro MIC, Broth Dilution Method, E. cloacae P99
Assay type: cell-based
Conditions: Enterobacter cloacae, P99, read-out: In Vitro MIC
From the text: The in vitro activity of the compounds of the present invention as measured by the Minimum Inhibitory Concentration (MIC) in micrograms/ml utilizing the Broth Dilution Method against a variety of Gram-positive and Gram-negative organisms, is as follows: Concentration (MIC) in micrograms/ml utilizing the Broth Dilution Method against a variety of Gram-positive and Gram-negative organisms, is as follows: In Vitro MIC (μg/ml), Broth Dilution Method
Counter-ions that a name gives are not always drawn.
assay_readout: MIC (µg/mL)

INSERT INTO results (compound, assay_readout, display_unit, meas_value) VALUES
  ('CO/N=C(\C(=O)N[C@@H]1C(=O)N2C(C(=O)O)=C(C[N+]3(C)CCN(c4c(F)cc5c(=O)c(C(=O)O)cn(CCF)c5c4F)CC3)CS[C@H]12)c1csc(N)n1 [Compound A]', 'MIC', 'µg/mL', 0.5),
  ('CCn1cc(C(=O)O)c(=O)c2cc(F)c(N3CC[N+](C)(CC4=C(C(=O)O)N5C(=O)[C@@H](NC(=O)/C(=N\OC)c6csc(N)n6)[C@H]5SC4)CC3)cc21 [Compound D]', 'MIC', 'µg/mL', 1),
  ('C[N+]1(CC2=C(C(=O)O)N3C(=O)[C@@H](NC=O)[C@H]3SC2)CCN(c2c(F)cc3c(=O)c(C(=O)O)cn(CCF)c3c2F)CC1 [Compound E, trifluoroacetate salt]', 'MIC', 'µg/mL', 0.5),
  ('C[N+]1(CC2=C(C(=O)O)N3C(=O)[C@@H](NC(=O)COc4ccccc4)[C@H]3SC2)CCN(c2c(F)cc3c(=O)c(C(=O)O)cn(CCF)c3c2F)CC1.[I-] [Compound B]', 'MIC', 'µg/mL', 0.5),
  ('CC(C)(O/N=C(\C(=O)N[C@@H]1C(=O)N2C(C(=O)[O-])=C(C[N+]3(C)CCN(c4c(F)cc5c(=O)c(C(=O)O)cn(CCF)c5c4F)CC3)CS[C@H]12)c1csc(N)n1)C(=O)O [Compound C, monosodium salt]', 'MIC', 'µg/mL', 2);

---

test system: P. aeruginosa 18 S/H; test: In vitro MIC, Broth Dilution Method, P. aeruginosa 18 S/H; format: cell-based; details: Pseudomonas aeruginosa
Where a name gives a salt, the structure may show the parent alone.
assay_readout: MIC (µg/mL)

INSERT INTO measurements (molecule, display_unit, meas_value) VALUES
  ('CCn1cc(C(=O)O)c(=O)c2cc(F)c(N3CC[N+](C)(CC4=C(C(=O)O)N5C(=O)[C@@H](NC(=O)/C(=N\OC)c6csc(N)n6)[C@H]5SC4)CC3)cc21', 'µg/mL', 32),
  ('CO/N=C(\C(=O)N[C@@H]1C(=O)N2C(C(=O)O)=C(C[N+]3(C)CCN(c4c(F)cc5c(=O)c(C(=O)O)cn(CCF)c5c4F)CC3)CS[C@H]12)c1csc(N)n1', 'µg/mL', 8),
  ('C[N+]1(CC2=C(C(=O)O)N3C(=O)[C@@H](NC=O)[C@H]3SC2)CCN(c2c(F)cc3c(=O)c(C(=O)O)cn(CCF)c3c2F)CC1 [Compound E, trifluoroacetate salt]', 'µg/mL', 8),
  ('CC(C)(O/N=C(\C(=O)N[C@@H]1C(=O)N2C(C(=O)[O-])=C(C[N+]3(C)CCN(c4c(F)cc5c(=O)c(C(=O)O)cn(CCF)c5c4F)CC3)CS[C@H]12)c1csc(N)n1)C(=O)O [Compound C, monosodium salt]', 'µg/mL', 8),
  ('C[N+]1(CC2=C(C(=O)O)N3C(=O)[C@@H](NC(=O)COc4ccccc4)[C@H]3SC2)CCN(c2c(F)cc3c(=O)c(C(=O)O)cn(CCF)c3c2F)CC1.[I-]', 'µg/mL', 4);

---

List of MIC tested on S. aureus 1059B.
Structures can show the parent of a compound that is named as a salt.
assay_readout: MIC (mg/L)

INSERT INTO assay_data (compound, system_name, assay_readout, meas_value) VALUES
  ('CCn1cc(C(=O)O)c(=O)c2cc(F)c(N3CC[N+](C)(CC4=C(C(=O)O)N5C(=O)[C@@H](NC(=O)/C(=N\OC)c6csc(N)n6)[C@H]5SC4)CC3)cc21', 'S. aureus 1059B', 'MIC', 2),
  ('C[N+]1(CC2=C(C(=O)O)N3C(=O)[C@@H](NC=O)[C@H]3SC2)CCN(c2c(F)cc3c(=O)c(C(=O)O)cn(CCF)c3c2F)CC1 [Compound E, trifluoroacetate salt]', 'S. aureus 1059B', 'MIC', 0.5),
  ('CC(C)(O/N=C(\C(=O)N[C@@H]1C(=O)N2C(C(=O)[O-])=C(C[N+]3(C)CCN(c4c(F)cc5c(=O)c(C(=O)O)cn(CCF)c5c4F)CC3)CS[C@H]12)c1csc(N)n1)C(=O)O [Compound C, monosodium salt]', 'S. aureus 1059B', 'MIC', 8),
  ('CO/N=C(\C(=O)N[C@@H]1C(=O)N2C(C(=O)O)=C(C[N+]3(C)CCN(c4c(F)cc5c(=O)c(C(=O)O)cn(CCF)c5c4F)CC3)CS[C@H]12)c1csc(N)n1', 'S. aureus 1059B', 'MIC', 2);
